Tested on: HIPK4;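 also: KINOMEscan kinase panel screen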
Details: concentration: 1 μM, replicates: in singlicate; n = 1
Rule: measured %Inh below 7% gets t; anything equal to or greater than 7% gets f.

Study these solved cases before continuing.
| compound | group-label |
| --- | --- |
| Cc1nc(N(C)[C@H]2CN(C(=O)CC#N)CC[C@H]2C)c2cc[nH]c2n1 | t |
| COc1ccc(Nc2nccc(N3CCC(NS(=O)(=O)c4ccc(NC(C)=O)cc4)C3)n2)cc1 (stereo not shown) | f |
| Cc1ccc(Oc2ccc(Nc3ncnc4cc[nH]c34)cc2C)cn1 | t |
| COc1cc2nccc(Nc3cccc(Oc4ccccc4)c3)c2cc1OC.Cl | f |
| Cl.c1ccc(Cn2cnc3cc(Nc4ncnc5ccccc45)ccc32)cc1 | t |
| O=C(Nc1n[nH]c2cc(-c3ccccc3F)ccc12)C1CC1 | t |
| Cl.NS(=O)(=O)c1cccc(Nc2cc(-c3ccc(F)cc3)n[nH]2)c1 | f |
| COc1ccc(CNC(=O)NC2CCN(c3ccnc(Nc4ccc(F)cc4)n3)C2)cc1 (stereo not shown) | f |

Input "O=C(NCCNc1ccnc(Nc2ccc(F)cc2)n1)Nc1ccc2c(c1)OCO2" ; condition: %Inh strictly below 7%. Does it hold? t

Input Cc1nnc(-c2ccc3ncn(-c4ccc(S(C)=O)cc4)c3c2)o1 (stereo not shown) ; condition: %Inh strictly below 7%. Does it hold? t

Input "COc1ccc(-c2coc3ccc(-c4nnc(SCc5cccc(C#N)c5)o4)cc23)cc1" ; condition: %Inh strictly below 7%. Does it hold? t

Input "Nc1ncnc2c1ncn2-c1cccc(F)c1" ; condition: %Inh strictly below 7%. Does it hold? t
